Taken from patent US12540141B2.

Measured pEC50 values are reported for all entries that follow.
- Tested on: 229E human corona virus (hCoV)
- assay-info: 229E Live Virus Assay (MRC-5 cells, CPE read by ATPlite)
- Format: cell-based, hCoV-229E
- measurement-context: Human coronavirus 229E, MRC5; hCoV-229E live virus in MRC-5 cells, MOI 0.05, CPE by ATPlite; run in duplicate
pEC50: −log10 of the molar value.

The cases that follow already have their pEC50 on record.
{"compound": "CC(C)C[C@@H](C(=O)N1C[C@]2(C[C@H]1C#N)C(=O)Nc1ccccc12)N(C)C(=O)c1ccc(-c2ccccc2)cn1 [Example 232]", "pEC50": "> 7.00"}
{"compound": "CC(C)C[C@@H](C(=O)N1C[C@]2(C[C@H]1C#N)C(=O)Nc1ccccc12)N(C)C(=O)c1ccc2ccc(Br)cc2c1 [Example 230]", "pEC50": "> 7.00"}
{"compound": "COc1cc(Cl)cc(C(=O)N(C)[C@@H](CC(C)C)C(=O)N2C[C@]3(C[C@H]2C#N)C(=O)Nc2ccccc23)c1 [Example 180]", "pEC50": "> 7.00"}
{"compound": "COc1cc(C(=O)N(C)[C@@H](CC(C)C)C(=O)N2C[C@]3(C[C@H]2C#N)C(=O)Nc2ccccc23)cc2c1=NC(C1CC1)N=2 (some centres unmarked) [Example 308]", "pEC50": "6.00 to 7.00"}

Next up:
-- ask Specify reported pEC50 for the compound shown: [2H]C([2H])([2H])N(C(=O)[C@H](O)c1ccc(F)cc1)[C@@H](CC1CC1)C(=O)N1C[C@]2(C[C@H]1C#N)C(=O)Nc1ccccc12 [Example 422]
-- reply > 7.00
